Entries and their OD450 values follow.
systemUnderTest: T1, huCD98hc ECD Avi-His (human, UniProt P08195 105-529)
T1 construct: biotinylated on the Avi tag where captured on streptavidin; also called Human CD98-AVI-His; Human CD98hc-AVI-His
T1 sequence: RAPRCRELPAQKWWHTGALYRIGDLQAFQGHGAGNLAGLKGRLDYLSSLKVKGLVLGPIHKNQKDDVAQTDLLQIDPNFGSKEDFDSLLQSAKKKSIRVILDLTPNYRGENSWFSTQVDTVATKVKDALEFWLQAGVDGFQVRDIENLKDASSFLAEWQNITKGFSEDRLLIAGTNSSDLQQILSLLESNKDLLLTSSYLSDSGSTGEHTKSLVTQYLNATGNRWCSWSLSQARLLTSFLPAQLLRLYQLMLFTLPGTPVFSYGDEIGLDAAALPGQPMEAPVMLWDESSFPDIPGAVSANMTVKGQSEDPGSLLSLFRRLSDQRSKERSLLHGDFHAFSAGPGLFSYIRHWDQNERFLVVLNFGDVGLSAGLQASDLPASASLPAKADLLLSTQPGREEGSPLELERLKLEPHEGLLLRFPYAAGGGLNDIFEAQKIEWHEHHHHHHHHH
experiment: ELISA, hybridoma supernatant

Below are worked cases with known answers.
# binder, OD450
data = [
    ("CD98HC.04.013 (antibody, V domains shown, hybridoma IgG) VH: EVQLVESGGDLGMPGGSLKLSCAASGFALSGYDMSWVRQTPDKRLEWVAYLSSGGGSTYYPYTVKGRFTISRDNAQNTLYLQMSSLKSEDTAIYYCARHSEVRPWFGYWGQGTLVTVSA VL: DIVMSQSPSSLAVSVGEKVTLTCKSSQSLLYSGNQKNYLAWYQQNPGQSPKLLIYWASTRESGVPDRFTGSGSGTDFTLTISSVKAEDLAVYYCQQYYTYPPTFGAGTKLGLK", 1.17),
    ("CD98HC.03.002 (antibody, V domains shown, hybridoma IgG) VH: DVQLVESGGGLVQPGGSRKLSCAASGFTFSTFGMHWVRQAPEKGLEWVAYISGGSTNIYYADTVKGRFTISRDNPKNTLFLQMTSLRSEDTAMYYCARETTLLATNFDYWGQGTTLTVSS VL: DIQMTQTTSSLSASLGDRVTISCRASQDISNYLNWYQQKPDGTVKLLIYYTSRLHSGVPSRFSGSGSGTDYSLTISNLEQEDIATYFCQQGSTLPRTFGGGTKLEIK", 1.53),
]

Query block: Entry CD98HC.04.011 (antibody, V domains shown, hybridoma IgG) VH: DVQLQESGPDLVKPSQSLSLTCSVTVYSFTSVYSWHWIRQFPGNKLEWMGYIHDSGTTNYNPSLKSRISVTRDTSKNQFFLQLNSVTTEDTATYYCARGRPYGYDGFAYWGQGTLVTVSA VL: DIQMTQSSSYLSVSLGDRVTITCKASDHINNWLAWYQQKPGNAPRLLITGAVNLETGVPSRFSGSGSGKDYTLSITSLQTEDVATYYCQQYWSIPRTFGGGTNLEIK : reported OD450 = ?
Result block: 1.16

# credit: patent US20250270341A1
